tested on: NCI-H1915; assay: relative viability (nuclei count vs DMSO), 5 days (fraction); higher = more cells survive; settings: first compound 0.006325 µM
measurement_name: relative viability
// no unit, no text: just the number

Would you please look over these solved cases?
The compound listed as CC(=O)O[C@@]12CO[C@@H]1C[C@H](O)[C@@]1(C)C(=O)[C@H](O)C3=C(C)[C@@H](OC(=O)[C@H](O)[C@@H](NC(=O)OC(C)(C)C)c4ccccc4)C[C@@](O)([C@@H](OC(=O)c4ccccc4)[C@H]21)C3(C)C [Docetaxel] + CC(C)C[C@H](NC(=O)[C@H](Cc1ccccc1)NC(=O)c1cnccn1)B(O)O [Bortezomib] (partner 0.002 µM) has a reported relative viability of 0.147

The compound listed as CC(=O)O[C@@]12CO[C@@H]1C[C@H](O)[C@@]1(C)C(=O)[C@H](O)C3=C(C)[C@@H](OC(=O)[C@H](O)[C@@H](NC(=O)OC(C)(C)C)c4ccccc4)C[C@@](O)([C@@H](OC(=O)c4ccccc4)[C@H]21)C3(C)C [Docetaxel] + C[C@@H](Oc1cc(-c2cnn(C3CCNCC3)c2)cnc1N)c1c(Cl)ccc(F)c1Cl [Crizotinib] (partner 1 µM) has a reported relative viability of 0.181

Consider the record given below.
The compound listed as CC(=O)O[C@@]12CO[C@@H]1C[C@H](O)[C@@]1(C)C(=O)[C@H](O)C3=C(C)[C@@H](OC(=O)[C@H](O)[C@@H](NC(=O)OC(C)(C)C)c4ccccc4)C[C@@](O)([C@@H](OC(=O)c4ccccc4)[C@H]21)C3(C)C [Docetaxel] + Cc1nc(Nc2ncc(C(=O)Nc3c(C)cccc3Cl)s2)cc(N2CCN(CCO)CC2)n1 [Dasatinib] (partner 0.075 µM) has a reported relative viability of 0.153
